Tested System: recombinant human IL-21 (human, UniProt Q9HBE4 30-162, limits assumed)
Sequence (Q9HBE4 30-162 limits assumed, form in doubt): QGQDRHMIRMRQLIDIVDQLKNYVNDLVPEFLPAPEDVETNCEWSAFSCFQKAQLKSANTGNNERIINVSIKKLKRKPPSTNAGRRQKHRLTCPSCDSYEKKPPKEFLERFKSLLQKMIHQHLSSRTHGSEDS
Protocol Details: cell-based or functional assay
Below, each entry is listed alongside its reported IC50 in PC differentiation assay (2 nM IL-21).
Entry rule: numbers only, all in nM.

Below, 4 binders whose answers are already recorded.
>>> observed_result("K44VHa6-N56Q (antibody, IgG1, V domains shown) VH: QVQLVQSGAEVKKPGASVKVSCKASGYTFTDYWMHWVRQAPGQGLEWMGTIDPSDQYTIYSQNFKGRVTMTVDESTSTVYMELSSLRSEDTAVYYCARYGFAMDYWGQGTLVTVSS VL: DIQLTQSPSSLSASVGDRVTITCRASQDISNFLNWYQQKPGKAVKLLIYYTSRLHSGVPSRFSGSGSGTDYTLTISSLQPEDFATYYCQQGHTLPRTFGGGTKVEIKR")
0.573
>>> observed_result("murine monoclonal antibody 19E3 (antibody, V domains shown, also called 19E3.1) VH: QVQLQQPGSELVMPGASVKMSCKASGYIFTDYWMHWVKQRPGQGLEWIGTIDPSDNYTIYSQNFKGKATLTVDESSSTAYMLLSSLTSEDSAVYFCARYGFAMDYWGQGTSVTVSS VL: DIQLTQTTSSLSASLGDRVTISCRASQDISNFLNWYQQTPDGTVKLLIYYTSRLHSGVPSRFSGSGSGTDYSLTISNLEQEDIATYFCQQGHTLPRTFGGGTKLEIK")
1.53
>>> observed_result("K44VHa-N56Q (MEDI7169) (antibody, V domains shown) VH: QVQLVQSGAEVKKPGASVKVSCKASGYTFTDYWMHWVRQAPGQGLEWMGTIDPSDQYTIYSQNFKGRVTMTRDTSTSTVYMELSSLRSEDTAVYYCARYGFAMDYWGQGTLVTVSS VL: DIQLTQSPSSLSASVGDRVTITCRASQDISNFLNWYQQKPGKAVKLLIYYTSRLHSGVPSRFSGSGSGTDYTLTISSLQPEDFATYYCQQGHTLPRTFGGGTKVEIK")
0.777
>>> observed_result("murine monoclonal antibody 9H10 (antibody, V domains shown, also called 9H10.1) VH: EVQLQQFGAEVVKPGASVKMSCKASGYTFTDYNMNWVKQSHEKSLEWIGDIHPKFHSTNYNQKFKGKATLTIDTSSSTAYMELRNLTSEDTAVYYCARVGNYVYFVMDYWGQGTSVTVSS VL: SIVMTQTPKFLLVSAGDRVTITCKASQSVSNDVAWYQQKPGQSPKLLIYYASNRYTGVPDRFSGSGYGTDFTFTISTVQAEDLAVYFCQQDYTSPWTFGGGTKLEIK")
116

For reference, reported IC50 in PC differentiation assay (2 nM IL-21) for K2Ha-N56Q (antibody, human IgG1, kappa, V domains shown) VH: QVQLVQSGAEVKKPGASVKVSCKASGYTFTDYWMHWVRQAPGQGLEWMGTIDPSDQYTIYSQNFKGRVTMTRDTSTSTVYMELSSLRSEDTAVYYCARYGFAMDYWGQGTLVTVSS VL: DIQLTQSPSSLSASVGDRVTITCRASQDISNFLNWYQQKPGKAVKLLIYYTSRLHSGVPSRFSGSGSGTDYTLTISSLQPEDFATYFCQQGHTLPRTFGGGTKVEIKR stands at 0.618

Sourced from patent US20200164069A1
